Molecular target: Sortase family protein (Staphylococcus aureus)
Sequence (Q9S446 whole entry, the tested form may be a part): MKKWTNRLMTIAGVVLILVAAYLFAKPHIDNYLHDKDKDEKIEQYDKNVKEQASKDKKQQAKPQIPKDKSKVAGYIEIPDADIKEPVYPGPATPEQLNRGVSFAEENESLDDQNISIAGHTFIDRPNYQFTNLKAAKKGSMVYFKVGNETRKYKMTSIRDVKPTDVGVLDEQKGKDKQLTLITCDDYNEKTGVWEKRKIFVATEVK
Assay: Inhibition of recombinant Staphylococcus aureus ATCC 6538p sortase lacking the N-terminal membrane anchor domain expressed in Escherichia coli cells TOP10 using Dabcyl-QALPETGEE-Edans substrate measured after 1 hr by fluorescence S13 spectrophotometry
test-readout: IC50 (µM)
Field format: number, assumed µM, no unit text.

**Q:** Tell me reported IC50 for O=C(O)c1cc[c]([Hg][OH])cc1 , tested with Sortase family protein (Staphylococcus aureus).
**A:** 116
